compounds and their reported TGI
# System: EKVX NSCLC
# method: NCI tumour cell line growth inhibition, 48 h

compound: Nc1c(-c2cccc3ccccc23)c2ccc([N+](=O)[O-])cc2c(=O)n1-c1nc2ccccc2s1
TGI: 17.4 µM

Query: Give EKVX NSCLC TGI for `Cn1c(/C(C#N)=C/c2ccc3ccccc3c2)cc2ccccc21`
Result: > 100 µM

Query: Give EKVX NSCLC TGI for `O=c1cc(N=P(c2ccccc2)(c2ccccc2)c2ccccc2)n(-c2ccccc2)c(=O)n1-c1ccccc1`
Result: 49.8 µM

Query: Give EKVX NSCLC TGI for `O=C1C=C(O)c2[nH]c(=O)ccc2C1=O`
Result: > 100 µM

Query: Give EKVX NSCLC TGI for `COCCOCCOCc1n(Cc2ccc3ccccc3n2)c2ccccc2[n+]1Cc1ccc2ccccc2c1`
Result: 10.8 µM

Query: Give EKVX NSCLC TGI for O=C1CN2C(c3ccccc3)=NN(c3ccc([N+](=O)[O-])cc3)C2(c2ccccc2)c2cc(Cl)ccc2N1CC1CC1 (centres undefined)
Result: > 100 µM

Query: Give EKVX NSCLC TGI for `CN(C)C(=S)S`
Result: > 100 µM

Query: Give EKVX NSCLC TGI for CC1CCCc2c1nn(C(=O)/C=C(\N)c1ccccc1)c2N (centres undefined)
Result: 44.1 µM

Query: Give EKVX NSCLC TGI for `CCOC(=O)/C(=C/c1cccc(OC)c1)N(CC)CC`
Result: > 100 µM

Query: Give EKVX NSCLC TGI for `CC(=O)N[C@H](C(=O)N[C@@H](CCCNC(=N)N)C(=O)N[C@@H](CCCCN)C(=O)N[C@@H](CCCNC(=N)N)C(=O)N[C@]1(C)CCCCCC/C=C\CCC[C@@](C)(C(=O)N[C@@H](CCCNC(=N)N)C(=O)N[C@@H](CCC(=O)O)C(=O)N[C@@H](CC(C)C)C(=O)N[C@H](C(=O)N[C@@H](CCC(=O)O)C(N)=O)C(C)C)NC(=O)[C@H](CCC(N)=O)NC(=O)[C@H](CC(C)C)NC(=O)[C@H](CC(C)C)NC(=O)[C@H](CCCNC(=N)N)NC(=O)[C@H](CCCNC(=N)N)NC(=O)[C@H](CC(C)C)NC1=O)C(C)C`
Result: 23.2 µM

Query: Give EKVX NSCLC TGI for `COC(=O)[C@]12CC[C@H]3CN(C(=O)OCc4ccccc4)[C@H]([C@H]31)[C@H](c1ccco1)N2S(=O)(=O)c1ccc(C)cc1`
Result: > 100 µM

Query: Give EKVX NSCLC TGI for Cc1nnc(N/N=C(/C(=O)C(C#N)c2ccccc2)C(C#N)c2ccccc2)n1N (centres undefined)
Result: > 100 µM

Query: Give EKVX NSCLC TGI for `O=c1c2ccccc2nc2[nH][nH]c(=S)n12`
Result: > 100 µM

Query: Give EKVX NSCLC TGI for `CCSc1nc(N)c2cn[nH]c2n1`
Result: > 100 µM

###

compounds and their reported TGI
# Test system: SF-268 CNS
# method: NCI tumour cell line growth inhibition, 48 h

In the examples that follow, each entry is paired with its recorded TGI.
compound: CC/C(=N\NS(=O)(=O)c1ccccc1)c1ccccc1
TGI: > 100 µM
//
compound: CC1(c2ccccc2)CC(c2ccccc2)=NO1 (stereo not drawn)
TGI: > 100 µM
//
compound: CC12CC(=O)C3C(C(=O)C1)C32C (stereo not drawn)
TGI: > 100 µM

Query: Using the record for `O=C(c1ccc2ccccc2c1)c1c(C(F)(F)F)n([O-])c2ccc(Cl)cc2[n+]1=O` , report its TGI.
Result: 2.33 µM

Query: Using the record for `c1ccc2nc3c(cc4ccccn43)nc2c1` , report its TGI.
Result: > 100 µM

Query: Using the record for `O=c1c2c3c(sc2n2c(-c4cc(-c5ccccc5)nn4-c4ccccc4)nnc2n1Cc1ccccc1)CCCC3` , report its TGI.
Result: > 100 µM

Query: Using the record for `COCOc1ccc(Cn2c(=O)n(C)c(=O)c3c2ncn3C)cc1[N+](=O)[O-]` , report its TGI.
Result: > 100 µM
